test: Inhibition of recombinant SARS-CoV2 Mac1 expressed in Escherichia coli Rosetta2 (DE3) by FRET assay; set-up: species or system Severe acute respiratory syndrome coronavirus 2
OBSERVATION TYPE: pIC50

Example entries begin here.
COMPOUND	OBSERVED MEASUREMENT
COC(=O)c1c(NC(=O)C2CC=CCC2C(=O)O)sc2c1CCCC2 (stereo unspecified)	4.56
COC(=O)c1c(NC(=O)[C@H]2CCCC[C@H]2C(=O)O)sc2c1CCC2	4.66
COC(=O)c1c(NC(=O)[C@H]2CCCC[C@H]2C(=O)O)sc2c1CCCC2	4.73
COC(=O)c1c(NC(=O)[C@H]2CCCC[C@H]2C(=O)O)sc2c1CC(C(C)(C)C)CC2 (stereo partly specified)	4.75

For every item below, please supply its pIC50.
1. COC(=O)c1c(NC(=O)[C@H]2CCCC[C@H]2C(=O)O)sc2c1CCCCC2 (racemic)
2. COC(=O)c1c(NC(=O)CCC(=O)O)sc2c1CCCCC2

*A*
5.2
4.32
